# system-under-test: human ether-à-go-go-related gene (hERG) potassium channel (human, UniProt Q12809);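 note: peak tail current of the secondary pulse compared with the same well before compound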
# Sequence (Q12809 whole entry, looked up): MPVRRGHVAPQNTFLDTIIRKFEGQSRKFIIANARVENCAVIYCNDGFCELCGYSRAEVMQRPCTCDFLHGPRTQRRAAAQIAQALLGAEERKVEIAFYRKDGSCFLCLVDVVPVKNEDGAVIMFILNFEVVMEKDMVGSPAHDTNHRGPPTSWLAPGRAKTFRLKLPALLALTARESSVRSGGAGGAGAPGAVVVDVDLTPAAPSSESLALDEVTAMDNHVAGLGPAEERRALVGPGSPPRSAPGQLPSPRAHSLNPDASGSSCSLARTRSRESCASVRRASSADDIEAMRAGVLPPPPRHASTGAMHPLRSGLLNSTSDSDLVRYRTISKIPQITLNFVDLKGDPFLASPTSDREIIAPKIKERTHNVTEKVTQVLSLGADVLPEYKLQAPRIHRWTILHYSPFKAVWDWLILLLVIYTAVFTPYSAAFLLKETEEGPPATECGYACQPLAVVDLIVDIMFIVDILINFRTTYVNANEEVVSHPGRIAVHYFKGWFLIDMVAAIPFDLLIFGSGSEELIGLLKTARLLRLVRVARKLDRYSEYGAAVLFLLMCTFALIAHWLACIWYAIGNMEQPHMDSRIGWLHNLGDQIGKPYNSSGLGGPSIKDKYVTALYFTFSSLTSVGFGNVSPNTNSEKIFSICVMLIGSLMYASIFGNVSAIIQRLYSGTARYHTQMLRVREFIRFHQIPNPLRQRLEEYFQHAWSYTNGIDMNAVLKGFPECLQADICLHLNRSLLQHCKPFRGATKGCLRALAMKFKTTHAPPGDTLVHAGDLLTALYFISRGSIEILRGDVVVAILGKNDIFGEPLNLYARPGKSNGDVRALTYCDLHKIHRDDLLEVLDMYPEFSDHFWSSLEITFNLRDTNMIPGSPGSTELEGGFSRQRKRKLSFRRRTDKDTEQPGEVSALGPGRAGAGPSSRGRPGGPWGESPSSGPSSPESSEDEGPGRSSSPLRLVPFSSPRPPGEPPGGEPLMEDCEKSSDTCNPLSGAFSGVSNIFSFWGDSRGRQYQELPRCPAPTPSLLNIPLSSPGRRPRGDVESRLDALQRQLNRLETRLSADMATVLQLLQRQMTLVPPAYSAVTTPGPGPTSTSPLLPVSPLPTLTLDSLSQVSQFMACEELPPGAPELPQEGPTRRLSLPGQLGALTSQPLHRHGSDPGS
# experimental-protocol: primary screen, population patch clamp on CHO cells stably expressing hERG; higher = less effect of the substance
In all, about 310,000 compounds went through this assay and about 14,000 (4.5%) showed an effect of 50% or more. The effect is printed as a negative number. The sample as a whole holds a higher share of strong results than the screen did.
quantity-kind: hERG current change (%, negative = inhibition) at 10uM (%)
Write the answer as a number in %, unit excluded.

Task item: What value of measured hERG current change (%, negative = inhibition) at 10uM is listed for O=c1cc(N2CCN(c3ccccc3)CC2)[nH]c(=O)n1Cc1ccc(F)cc1 ?
Reply: -25.9

Task item: Param item: O=C(c1ccccc1)N1CCN(CC(O)COc2ccc(Br)cc2)CC1 (stereo not drawn)
Reply: -64.9

Task item: Param item: N#CC1=C(N)OC(c2ccccc2)=C(C#N)C1c1ccc2c(c1)OCO2 (stereo not drawn)
Reply: 14.3
